- Test system: cell lines of human non-small cell lung cancer (H522)
- test_summary: In vitro antineoplastic activity, MTT experiment, H522
- Assay type: cell-based
- test_conditions: H522 cells, 48 hours, highest concentration tested 31.6 μM (>30: inhibition rate <50%)
IC50 under 0.9 µM gets t, anything at or over 0.9 µM gets f.

Completed entries (count: 6):
| smiles_representation | qualitative_label |
| --- | --- |
| O=C(Nc1ccc(Nc2nc(/C=C/c3ccccc3)nc(N3CCOCC3)n2)cc1)Nc1ccc(C(=O)NCCN2CCCCC2)cc1 | f |
| CN1CCN(c2nc(/C=C/c3ccccc3)nc(Nc3ccc(NC(=O)Nc4ccc(Cl)cc4)cc3)n2)CC1 | f |
| CN(C)C(=O)c1ccc(NC(=O)Nc2ccc(Nc3nc(/C=C/c4ccccc4)nc(N4CCOCC4)n3)cc2)cc1 | f |
| CN1CCN(C(=O)c2ccc(NC(=O)Nc3ccc(Nc4nc(/C=C/c5ccccc5)nc(N5CCOCC5)n4)cc3)cc2)CC1 | f |
| CN1CCN(c2nc(/C=C/c3ccc(Cl)cc3)nc(Nc3ccc(NC(=O)Nc4ccc(Cl)cc4)cc3)n2)CC1 | t |
| CN(C)CCCNC(=O)c1ccc(NC(=O)Nc2ccc(Nc3nc(/C=C/c4ccccc4)nc(N4CCOCC4)n3)cc2)cc1 | f |

Please examine the following record next.
Is the reported IC50 for O=C(Nc1ccc(F)cc1)Nc1ccc(Nc2nc(/C=C/c3ccc(Cl)cc3)nc(N3CCOCC3)n2)cc1 strictly below 0.9 µM?
t

Source listed as patent US11390591B2.
